Catalogue of GI50 readings, one per entry.
Test system: SK-MEL-5 melanoma
Assay explanation: NCI tumour cell line growth inhibition, 48 h
Endpoint: GI50

>  <Molecule>
C=C1C(=O)O[C@H]2[C@H]1CC/C(COC(=O)NCC(C)c1ccc(CC(C)C)cc1)=C\CC[C@@]1(C)O[C@@H]21 (stereo partly specified)

>  <System>
SK-MEL-5 melanoma

>  <Endpoint>
GI50

>  <Value>
3970 nM

$$$$
>  <Molecule>
Cc1ccc(-c2nc3nc(-c4ccc(F)cc4)nc(N4CCCNCC4)c3o2)cc1

>  <System>
SK-MEL-5 melanoma

>  <Endpoint>
GI50

>  <Value>
1750 nM

$$$$
>  <Molecule>
C(=N\Nc1nnn(Cc2ccccc2)n1)/c1ccccc1

>  <System>
SK-MEL-5 melanoma

>  <Endpoint>
GI50

>  <Value>
2020 nM

$$$$
>  <Molecule>
c1ccc2[nH]c(-c3ccc(Nc4nc(N5CCCCC5)nc(N5CCOCC5)n4)cc3)nc2c1

>  <System>
SK-MEL-5 melanoma

>  <Endpoint>
GI50

>  <Value>
1780 nM

$$$$
>  <Molecule>
Nc1ccc(/C=C/C(=O)NCc2cc3cc(-c4ccc(C(=O)N5CCC(F)(F)CC5)cc4)cc(-c4ccc(F)cc4)c3o2)cn1

>  <System>
SK-MEL-5 melanoma

>  <Endpoint>
GI50

>  <Value>
14200 nM

$$$$
>  <Molecule>
O=C(N/N=C/c1ccccc1O)c1ccccc1

>  <System>
SK-MEL-5 melanoma

>  <Endpoint>
GI50

>  <Value>
2970 nM

$$$$
>  <Molecule>
CC(C)(C)c1cc(C=C(C#N)C#N)cc(C(C)(C)C)c1O

>  <System>
SK-MEL-5 melanoma

>  <Endpoint>
GI50

>  <Value>
298 nM

$$$$
>  <Molecule>
COc1ccc(CN2C3CC2CN(c2ccc(-c4cc(OCC(C)(C)O)cn5ncc(C#N)c45)cn2)C3)cn1

>  <System>
SK-MEL-5 melanoma

>  <Endpoint>
GI50

>  <Value>
> 100000 nM

$$$$
>  <Molecule>
COc1cc(NCCCCCCCNC(C)C)c2nccc(C)c2c1

>  <System>
SK-MEL-5 melanoma

>  <Endpoint>
GI50

>  <Value>
11900 nM

$$$$
>  <Molecule>
CCNC(=O)c1noc(-c2cc(C(C)C)c(O)cc2O)c1-c1ccc(CN2CCOCC2)cc1

>  <System>
SK-MEL-5 melanoma

>  <Endpoint>
GI50

>  <Value>
47 nM

$$$$
>  <Molecule>
O=S(=O)(CCCl)c1ccc(Cl)cc1

>  <System>
SK-MEL-5 melanoma

>  <Endpoint>
GI50

>  <Value>
6270 nM

$$$$
